Test: NCI Yeast Anticancer Drug Screen. Data for the cln2 rad14 strain (AID 165);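 note: 0% = growth equal to vehicle treated cultures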
Settings: S. cerevisiae cln2 rad14 strain, at 50.0 µM, hits give high values
Protocol: Growth inhibition of yeast strains with defined genetic alterations is measured as a screen for potential anti-cancer activity. Selected strains with alterations in DNA damage repair or cell cycle control were exposed to compounds and growth inhibition was measured relative to vehicle treated controls. The strain used in this assay is cln2 rad14
The panel holds about 79,000 compounds, 15% with a hit somewhere; the sample as a whole holds those more often.
We use -10% as the dividing line for growth inhibition: on or above the line is label 1, below is label 0.

- Compound: "Nc1cccc(S(=O)(=O)Nc2ccccc2)c1"
  Answer label: "label 1"

Is the recorded value of growth inhibition equal to or greater than -10% for this compound? Cc1cccc(CSc2nc(N)nc3ncn(C4CC(O)C(CO)O4)c23)n1 (stereo unspecified)
label 0

Is the recorded value of growth inhibition equal to or greater than -10% for this compound? COC(=O)C(C(=O)OC)C(Br)(OC(C)=O)OC(C)=O
label 1

Is the recorded value of growth inhibition equal to or greater than -10% for this compound? Cc1ccc(S(=O)(=O)N(Cc2cccc([N+](=O)[O-])c2)c2ccc(C(=O)O)cc2)cc1
label 0

Is the recorded value of growth inhibition equal to or greater than -10% for this compound? O=S(=O)(c1ccccc1)N1CCCCC1
label 0

Is the recorded value of growth inhibition equal to or greater than -10% for this compound? O=C(O)C(CCl)c1ccccc1 (stereo unspecified)
label 0

Is the recorded value of growth inhibition equal to or greater than -10% for this compound? O=S(=O)(OC12CCCCC1CN1CCCCC1C2)c1ccc(Br)cc1 (stereo unspecified)
label 1

Is the recorded value of growth inhibition equal to or greater than -10% for this compound? Brc1cccc(C2SCc3nc4ccccc4n32)c1 (stereo unspecified)
label 1

Is the recorded value of growth inhibition equal to or greater than -10% for this compound? CSc1cc(Cl)c(C)cc1S(=O)(=O)n1cc[nH]c1=O
label 1

Is the recorded value of growth inhibition equal to or greater than -10% for this compound? CCSc1nc(COC(=O)NC)c(COC(=O)NC)n1C
label 1

Is the recorded value of growth inhibition equal to or greater than -10% for this compound? COc1ccc(C)cc1N=NC1C(=O)N(C(=O)CC(=O)Nc2ccccc2OC)N=C1c1ccccc1 (stereo unspecified)
label 1

Is the recorded value of growth inhibition equal to or greater than -10% for this compound? CCCCCC(CC)OC(=O)Nc1cccc2ccccc12 (stereo unspecified)
label 1

Is the recorded value of growth inhibition equal to or greater than -10% for this compound? C[n+]1ccccc1C#N
label 1

---

Assay: NCI Yeast Anticancer Drug Screen. Data for the mec2-1 strain (AID 157)
Settings: S. cerevisiae mec2-1 strain, at 50.0 µM, hits give high values
Compounds without any hit were thinned out: in the full panel of roughly 79,000, 15% have a hit.
Entries annotated with measured growth inhibition
Note: unit % is implicit; provide only the numeric part.

Completed entries (count: 6):
- Compound: "O=S(=O)(O)c1cc(N=Nc2cc(S(=O)(=O)O)c3cccnc3c2O)ccc1/C=C/c1ccc(N=Nc2cc(S(=O)(=O)O)c3cccnc3c2O)cc1S(=O)(=O)O.[Cu+2].[Na+]"
  Recorded measurement: 18.2
- Compound: "Clc1ccc(C2ON=C(c3ccccc3)N2C23CC4CC(CC(C4)C2)C3)cc1 (stereo not given)"
  Recorded measurement: -27
- Compound: "C/C(=N/OCCC(=O)O)C1CC1"
  Recorded measurement: -1.65
- Compound: "Cc1ccc(S(=O)(=O)OC[C@H]2CC=CC[C@@H]2COS(=O)(=O)c2ccc(C)cc2)cc1"
  Recorded measurement: 31.6
- Compound: "CC(O)C(O)C(=O)NN (stereo not given)"
  Recorded measurement: 0.3
- Compound: "NS(=O)(=O)c1ccc(NC(=O)CC(=O)c2ccccc2)cc1"
  Recorded measurement: -32.7

Consider the compound CCCCOC(=O)c1ccc(OC(=O)Nc2ccc(Cl)cc2)cc1 . State its measured growth inhibition.
42.3

Consider the compound COc1ccc(-n2nc3c(ccc4ccccc43)c2N)cc1 . State its measured growth inhibition.
-8.5

Consider the compound Nc1ccc2c(c1)C(=O)N(OS(=O)(=O)c1ccccc1)C2=O . State its measured growth inhibition.
39

Consider the compound O=C(c1ccc(Br)cc1)C(C(c1ccccc1)N1CCOCC1)N1CCOCC1 (stereo not given) . State its measured growth inhibition.
-1.1

Origin of values: PubChem BioAssay (NCI)
